ASSAYED_SYSTEM: Retinoic acid receptor RXR-alpha (Homo sapiens) (UniProt P19793)
Sequence (P19793 whole entry, looked up): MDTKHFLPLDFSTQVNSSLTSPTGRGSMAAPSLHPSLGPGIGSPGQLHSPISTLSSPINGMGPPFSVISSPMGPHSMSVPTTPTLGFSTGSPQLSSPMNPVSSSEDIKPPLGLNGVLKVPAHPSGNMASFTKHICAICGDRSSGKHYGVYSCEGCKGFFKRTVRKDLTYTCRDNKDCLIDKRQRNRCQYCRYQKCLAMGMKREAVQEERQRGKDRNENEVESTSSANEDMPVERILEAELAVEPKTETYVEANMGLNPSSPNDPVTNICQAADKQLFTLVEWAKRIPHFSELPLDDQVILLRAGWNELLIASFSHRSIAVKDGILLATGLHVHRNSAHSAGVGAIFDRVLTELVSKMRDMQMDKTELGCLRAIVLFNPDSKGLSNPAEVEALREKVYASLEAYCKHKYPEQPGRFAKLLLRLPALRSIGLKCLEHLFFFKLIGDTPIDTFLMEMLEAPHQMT
PROTOCOL: OT_NURR1_NURR1RXRa_1440: Odyssey Thera (OT) 24-hour HEK293T Protein Complementation Assay for Nurr1/retinoid X receptor (RXR) (AID 2283386)
Records with an inconclusive call do not appear. Active and inactive are the calls of the source. The calls were made as follows: active = hit-call score of the fitted dose curve at least 0.9, where 1 is the maximum; inconclusive = response in the unintended direction; inactive = score below 0.9.
// one of active, inactive, no free text

Prompt line: Would you mind telling me which call this test gave NC(=O)NC1NC(=O)NC1=O (stereo not given) ?
Response line: inactive

Prompt line: Would you mind telling me which call this test gave C[Si](O[Si](C)(C)C)O[Si](C)(C)C ?
Response line: inactive

Prompt line: Would you mind telling me which call this test gave c1ccc2[nH]ccc2c1 ?
Response line: inactive

Prompt line: Would you mind telling me which call this test gave CCN(CC)c1ccc2c(-c3ccccc3C(=O)O)c3ccc(=[N+](CC)CC)cc-3oc2c1 ?
Response line: active

Prompt line: Would you mind telling me which call this test gave BrC1CCC(Br)C(Br)CCC(Br)C(Br)CCC1Br (stereo not given) ?
Response line: inactive

Prompt line: Would you mind telling me which call this test gave Cc1ccc(S)cc1 ?
Response line: active

Prompt line: Would you mind telling me which call this test gave CC(=O)C=CC1=C(C)CCCC1(C)C ?
Response line: inactive

Prompt line: Would you mind telling me which call this test gave OCCOCCOCCOCCO ?
Response line: inactive

Prompt line: Would you mind telling me which call this test gave O=C[C@@H](O)[C@H](O)[C@H](O)CO ?
Response line: inactive

Prompt line: Would you mind telling me which call this test gave CCCCCCCCCC=O ?
Response line: inactive

Prompt line: Would you mind telling me which call this test gave CC(C)CCCCCCCOC(=O)c1ccc(C(=O)OCCCCCCCC(C)C)c(C(=O)OCCCCCCCC(C)C)c1 ?
Response line: inactive

Prompt line: Would you mind telling me which call this test gave CCCCCCCCCCCCN ?
Response line: active

Prompt line: Would you mind telling me which call this test gave CCCCCCCCC=O ?
Response line: inactive

Prompt line: Would you mind telling me which call this test gave CCCCCCCCCCC(CO)CCCCCCCC (stereo not given) ?
Response line: inactive

Prompt line: Would you mind telling me which call this test gave CC1(C)[C@@H]2CC[C@@]1(C)[C@H](O)C2 ?
Response line: inactive

---

PROTOCOL: ATG_Ets_CIS: Attagene CIS-FACTORIAL HepG2 Assay for human Erythroblast Transformation Specific (ETS) (AID 2282941)
MEASUREMENT_PARAMETERS: HepG2 ETS cis-reporter transcription, actives raise or lower the signal
Active and inactive are the calls of the source. The calls were made as follows: active = hit-call score of the fitted dose curve at least 0.9, where 1 is the maximum; inactive = score below 0.9.
// one of t = active, f = inactive, no free text

Prompt line: Would you mind telling me which call this test gave CCCCC(CC)COC(=O)/C=C\C(=O)OCC(CC)CCCC (stereo unspecified) ?
Response line: f

Prompt line: Would you mind telling me which call this test gave CC1(CO)CN(c2ccccc2)NC1=O (stereo unspecified) ?
Response line: f

Prompt line: Would you mind telling me which call this test gave O=[N+]([O-])c1cc(C(F)(F)F)ccc1Cl ?
Response line: f

Prompt line: Would you mind telling me which call this test gave CCN(CC)c1ccc2c(-c3ccccc3C(=O)O)c3ccc(=[N+](CC)CC)cc-3oc2c1 ?
Response line: f

Prompt line: Would you mind telling me which call this test gave N#Cc1nc(Cl)c(Cl)c(Cl)c1Cl ?
Response line: t

Prompt line: Would you mind telling me which call this test gave CC(C)(COC(=O)c1ccccc1)COC(=O)c1ccccc1 ?
Response line: f
